target: Mannose-6-phosphate isomerase (Homo sapiens) (UniProt P34949); assay: MPI activation at elevated mannose 6-phosphate – biochemical, fluorescence intensity, near-saturating mannose 6-phosphate, primary screen (AID 1216); conditions: coupled PMI enzyme assay, resazurin fluorescence, 20 min; at 20 µM; 1 = untreated enzyme, 0 = substrate-free blank
Sequence (P34949 whole entry, looked up): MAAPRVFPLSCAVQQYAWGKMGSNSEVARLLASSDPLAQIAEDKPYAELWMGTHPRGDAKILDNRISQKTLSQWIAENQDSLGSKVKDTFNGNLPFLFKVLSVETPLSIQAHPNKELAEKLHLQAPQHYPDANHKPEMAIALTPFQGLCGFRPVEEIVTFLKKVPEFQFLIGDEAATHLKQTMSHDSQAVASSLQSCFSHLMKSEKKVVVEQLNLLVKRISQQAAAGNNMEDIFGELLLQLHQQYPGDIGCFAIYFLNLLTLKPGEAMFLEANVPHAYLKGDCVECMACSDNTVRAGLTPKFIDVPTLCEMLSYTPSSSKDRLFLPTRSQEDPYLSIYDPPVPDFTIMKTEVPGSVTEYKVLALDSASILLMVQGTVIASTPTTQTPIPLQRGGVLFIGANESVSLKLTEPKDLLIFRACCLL
Among all 190,000 compounds or so, about 660 (0.35%) were called active.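 How the source made its calls: active means activation factor of 2 or more at 20 µM; inactive means the rest.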 The sample holds actives, similar compounds and a random draw of the others, so the mix is not that of the screen.
Result category, one only: active, inactive

Solved entries (count: 5):
>>> class_assignment("COCCCNC(=S)NC(=O)c1ccc([N+](=O)[O-])cc1")
"inactive"
>>> class_assignment("O=C(NNC1CC(=O)N(c2cccc(Cl)c2)C1=O)c1cccnc1 (stereo not drawn)")
"inactive"
>>> class_assignment("O=C1CC(c2ccccc2)C(=O)N1c1cccc(O)c1 (stereo not drawn)")
"inactive"
>>> class_assignment("CCOC(=O)C1(O)CC(C)=NN1C(=O)c1cccc(Br)c1 (stereo not drawn)")
"inactive"
>>> class_assignment("COc1cc(OC)cc(C(=O)OCC(=O)Nc2ccc(F)cc2F)c1")
"inactive"

Field: outcome | Entry: "COc1ccccc1CC(=O)Nc1ccc(F)cc1F"
inactive

Field: outcome | Entry: "Cc1ccc(NN=Nc2nc3c([nH]2)c(=O)n(C)c(=O)n3C)cc1"
active

Field: outcome | Entry: O=C(CCCn1c(=O)c2sccc2n(CC(=O)NCC2CCCO2)c1=O)NCc1ccco1 (stereo not drawn)
inactive

Field: outcome | Entry: "CC1CCN(C(=O)c2ccc(S(=O)(=O)Cc3cc(F)ccc3F)c([N+](=O)[O-])c2)CC1"
inactive

Field: outcome | Entry: "COCCCNC(=S)NCCNc1nc2cc(C)c(C)cc2cc1C#N"
active

====

molecular target: Mannose-6-phosphate isomerase (Homo sapiens); assay: MPI activation at elevated mannose 6-phosphate – biochemical, fluorescence intensity, near-saturating mannose 6-phosphate, primary screen (AID 1216); conditions: coupled PMI enzyme assay, resazurin fluorescence, 20 min; at 20 µM; 1 = untreated enzyme, 0 = substrate-free blank
The whole screen tested about 190,000 compounds, of which about 660 (0.35%) were called active.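 The calls were made as follows: active = activation factor of 2 or more at 20 µM; inactive = the rest.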 The entries come from a sample that favours actives as a whole.
Result category, one only: True for active, False for inactive

>>> class_assignment("S=c1ccc2ccccc2[nH]1")
"True"
>>> class_assignment("CSc1cccc(NC(=S)N(Cc2ccccc2)Cc2ccccn2)c1")
"False"
>>> class_assignment("O=C(OCc1ccc([N+](=O)[O-])cc1)c1ccccn1")
"False"
>>> class_assignment("CCOC(=O)Cn1c(N)c(C(=O)OC)sc1=S")
"False"

Field: outcome | Entry: "NC(=O)CC[C@@H]1NC(=O)[C@@H]2CCCN2C(=O)c2cc([N+](=O)[O-])cc(F)c2NCCC[C@@H](C(N)=O)NC1=O"
False

Field: outcome | Entry: "NS(=O)(=O)c1cccc(NC(=O)CN2CCCc3ccccc32)c1"
False

Field: outcome | Entry: "CCN(CC)S(=O)(=O)c1cc([N+](=O)[O-])ccc1N=Nc1c(O)n(C)c2ccccc12"
False

Field: outcome | Entry: "COc1cc(/C=N/O)ccc1OCc1ccc([N+](=O)[O-])cc1"
False

Field: outcome | Entry: "CCn1c(N)c(Br)c(=O)[nH]c1=O"
False
